Where do these numbers come from? They come from patent US20200392198A1.

- assayed.target: T1, human GLP-2 receptor (human, UniProt O95838 1-553)
- T1 sequence (looked up): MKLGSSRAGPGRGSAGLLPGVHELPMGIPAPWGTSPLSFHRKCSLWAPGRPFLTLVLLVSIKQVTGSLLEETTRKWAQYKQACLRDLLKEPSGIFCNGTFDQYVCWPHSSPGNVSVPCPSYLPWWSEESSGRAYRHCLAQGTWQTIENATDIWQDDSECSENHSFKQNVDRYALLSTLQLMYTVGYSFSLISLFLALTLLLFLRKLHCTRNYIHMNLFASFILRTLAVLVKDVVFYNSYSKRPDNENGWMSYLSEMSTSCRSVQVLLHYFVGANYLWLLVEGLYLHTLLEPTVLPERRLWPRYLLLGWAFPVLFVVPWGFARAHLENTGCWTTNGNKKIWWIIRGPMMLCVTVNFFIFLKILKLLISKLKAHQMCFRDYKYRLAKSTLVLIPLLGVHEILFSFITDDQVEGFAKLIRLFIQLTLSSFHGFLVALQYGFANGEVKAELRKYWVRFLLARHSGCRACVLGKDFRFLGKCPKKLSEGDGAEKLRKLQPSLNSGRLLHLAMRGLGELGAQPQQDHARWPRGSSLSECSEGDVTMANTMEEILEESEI
- test: cell-based or functional assay
Listed below: EC50 (cAMP) values for each entry.

binder: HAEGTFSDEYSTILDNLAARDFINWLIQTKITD [GIP-GLP-2 co-agonist 5]
EC50 (cAMP), nM: 6.2
//
binder: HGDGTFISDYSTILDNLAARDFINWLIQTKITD [GIP-GLP-2 co-agonist 11]
EC50 (cAMP), nM: 24
//
binder: HAEGTFISDYSTILDNLAARDFINWLIQTKITDNDWKHNITQ [GIP-GLP-2 co-agonist 2]
EC50 (cAMP), nM: 145
//
binder: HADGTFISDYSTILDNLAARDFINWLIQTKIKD [GIP-GLP-2 co-agonist 17]
EC50 (cAMP), nM: 25
//
binder: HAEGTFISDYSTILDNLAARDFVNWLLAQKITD [GIP-GLP-2 co-agonist 9]
EC50 (cAMP), nM: 123
//
binder: HAEGTFISDMNTILDNLAARDFINWLIQTKITD [GIP-GLP-2 co-agonist 6]
EC50 (cAMP), nM: 60
